Reported inhibition at 50 µM values for a set of molecules
- test system: Cdc42 (Homo sapiens)
- Construct: GST (N); made in house; host or cells: E. coli BL21 Codon+RIL
- Sequence (P60953 whole entry, species assumed): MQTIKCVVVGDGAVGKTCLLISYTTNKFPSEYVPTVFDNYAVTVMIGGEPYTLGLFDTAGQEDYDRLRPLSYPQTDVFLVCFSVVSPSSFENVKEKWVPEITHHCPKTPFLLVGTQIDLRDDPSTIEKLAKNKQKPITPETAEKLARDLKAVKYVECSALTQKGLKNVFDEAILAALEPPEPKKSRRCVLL
- experimental protocol: Nucleotide binding assay: BODIPY-GTP binding to Cdc42
- Type: biochemical
- setup conditions: read-out: Cdc42 % inhibition of BODIPY-GTP binding
Structures can show the parent of a compound that is named as a salt.
quantity measured: inhibition at 50 µM (%)

# molecule, test system, experimental value
measured = [
    ("COc1ccc2c(c1OC)CN1CCc3cc(O)c(O)cc3C1C2 (racemic) [Compound 17, hydrochloride]", "Cdc42 (Homo sapiens)", -13),
    ("C[n+]1cc2c3c(ccc2c2ccc4cc5c(cc4c21)OCO5)OCO3.O.[Cl-] [Compound 13, hydrate, reference compound]", "Cdc42 (Homo sapiens)", 63),
    ("Oc1cc2c(cc1O)C1Cc3ccc(O)c(O)c3CN1CC2 (racemic) [Compound 16, hydrochloride]", "Cdc42 (Homo sapiens)", 4),
    ("C[n+]1cc2c(O)c(O)ccc2c2ccc3cc(O)c(O)cc3c21", "Cdc42 (Homo sapiens)", 73),
    ("COc1cc2cc3c4cc(OC)c(OC)cc4cc[n+]3c(C)c2cc1OC [Compound 8, hydrate, reference compound]", "Cdc42 (Homo sapiens)", 21),
    ("COc1ccc(Cc2nccc3cc(OC)c(OC)cc23)cc1OC [Compound 9, hydrochloride, reference compound]", "Cdc42 (Homo sapiens)", 2),
]
